- ASSAYED_SYSTEM: TEM-1 β-lactamase (Escherichia coli, UniProt P62593)
- EXPERIMENT: TEM-1 β-lactamase inhibition assay (nitrocefin hydrolysis, 486 nm)
- Assay type: biochemical
- CONDITION_DETAILS: 25° C., 50 mM sodium phosphate, 5% DMSO, pH 7.0; enzyme 5 nM, nitrocefin 167 μM
PROPERTY_NAME: Ki (µM)
Field format: number, assumed µM, no unit text.

-- ask Determine from records and report Ki for `COC(=O)c1cc(B(O)O)cc([N+](=O)[O-])c1`
-- reply 95

---

- ASSAYED_SYSTEM: TEM-1 β-lactamase (Escherichia coli, UniProt P62593)
- EXPERIMENT: TEM-1 β-lactamase inhibition assay (nitrocefin hydrolysis, 486 nm)
- Assay type: biochemical
PROPERTY_NAME: Ki (µM)
Reply numerically in µM, unit not repeated.

-- ask Given O=C(Oc1cc(OC(=O)c2cc(B(O)O)cc([N+](=O)[O-])c2)cc(OC(=O)c2cc(B(O)O)cc([N+](=O)[O-])c2)c1)c1cc(B(O)O)cc([N+](=O)[O-])c1 [Compound (12a)] , report its Ki on TEM-1 β-lactamase (Escherichia coli, UniProt P62593).
-- reply 6.9

---

- ASSAYED_SYSTEM: β-lactamase M69I (Escherichia coli, UniProt P62593, M67I)
- EXPERIMENT: Isothermal titration calorimetry, binding enthalpy, M69I mutant
# ΔH M69I annotations
A number alone suffices; assume kcal/mol.

-- ask Identify ΔH M69I associated with the compound `O=C(Oc1ccccc1[N+](=O)[O-])c1cc(B(O)O)cc([N+](=O)[O-])c1`
-- reply -2

-- ask Specify reported ΔH M69I for the compound shown: `O=C(OCc1ccccc1)c1cc(B(O)O)cc([N+](=O)[O-])c1`
-- reply -2.4

-- ask In one line, give reported ΔH M69I of the entry `O=C(Oc1ccccc1Cl)c1cc(B(O)O)cc([N+](=O)[O-])c1` .
-- reply -1.693

-- ask Please give measured ΔH M69I of the following entry: `N#Cc1ccccc1OC(=O)c1cc(B(O)O)cc([N+](=O)[O-])c1`
-- reply -2.46

-- ask Tell me ΔH M69I reported for `O=C(Oc1c(Cl)cccc1[N+](=O)[O-])c1cc(B(O)O)cc([N+](=O)[O-])c1`
-- reply -0.953

-- ask Determine its reported ΔH M69I: `COC(=O)c1cc(B(O)O)cc([N+](=O)[O-])c1`
-- reply -3.3

---

- ASSAYED_SYSTEM: AmpC β-lactamase (Escherichia coli, UniProt P00811)
- Construct: made in house; host or cells: E. coli BL21 (DE3)
- Sequence (P00811 20-377): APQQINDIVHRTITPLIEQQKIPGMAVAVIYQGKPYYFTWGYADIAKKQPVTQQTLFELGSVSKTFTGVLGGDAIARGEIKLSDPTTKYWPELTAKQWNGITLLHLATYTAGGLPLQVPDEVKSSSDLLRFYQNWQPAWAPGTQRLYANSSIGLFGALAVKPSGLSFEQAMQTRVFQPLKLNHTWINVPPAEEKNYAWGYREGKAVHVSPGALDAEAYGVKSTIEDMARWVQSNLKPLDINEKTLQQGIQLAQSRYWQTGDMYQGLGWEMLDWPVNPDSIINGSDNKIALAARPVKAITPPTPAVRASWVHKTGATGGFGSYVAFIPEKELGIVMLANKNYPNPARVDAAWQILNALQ
- CONDITION_DETAILS: binding to AmpC; ITC
PROPERTY_NAME: ΔG (kcal/mol)
A number alone suffices; assume kcal/mol.

# annotated cases, reported ΔG shown
-- ask Return the recorded ΔG value; entry: O=C(OCc1cccc(B(O)O)c1)c1cc(B(O)O)cc([N+](=O)[O-])c1 [Compound (3d)]
-- reply -7.442

-- ask Read off the recorded ΔG for O=C(Oc1cccc(B(O)O)c1)c1ccc(C(=O)Oc2cccc(B(O)O)c2)cc1 [Compound (11a)]
-- reply -7.548

-- ask Query ΔG for Nc1cc(B(O)O)cc(C(=O)OCc2cccc(B(O)O)c2)c1 [Compound (3f)]
-- reply -8.151

-- ask Assign ΔG to the following record: O=C(OCc1ccccc1)c1cccc(B(O)O)c1 [Compound F1001]
-- reply -6.83

-- ask Provide one value: measured ΔG of O=C(Oc1ccc(OC(=O)c2ccc(B(O)O)cc2F)c(Cl)c1)c1ccc(B(O)O)cc1F [Compound (7a)]
-- reply -7.314

Next:
-- ask Item O=C(OCc1cccc(B(O)O)c1)c1cc(O)cc(B(O)O)c1 [Compound (3g)] : provide ΔG
-- reply -7.356

-- ask Input O=C(Oc1c(Cl)cccc1[N+](=O)[O-])c1ccc(B(O)O)cc1F [(8a)] , output reported ΔG.
-- reply -8.19

-- ask Tell me measured ΔG for O=C(OCc1ccccc1)c1cc(B(O)O)cc([N+](=O)[O-])c1 [Compound F1201] please.
-- reply -6.566

-- ask For O=C(Oc1c(Cl)c(Cl)c(OC(=O)c2cc(B(O)O)cc([N+](=O)[O-])c2)c(Cl)c1Cl)c1cc(B(O)O)cc([N+](=O)[O-])c1 [Compound (2c)] , write its ΔG.
-- reply -7.115

---

# Ki annotations
- ASSAYED_SYSTEM: AmpC β-lactamase (Escherichia coli, UniProt P00811)
- EXPERIMENT: AmpC β-lactamase competitive inhibition assay (nitrocefin hydrolysis)
Note: unit µM is implicit; provide only the numeric part.

Use these answered entries as a reference point.
-- ask Write down Ki measured for item O=C(Oc1ccc(OC(=O)c2ccc(B(O)O)cc2F)c(Cl)c1)c1ccc(B(O)O)cc1F [Compound (7a)]
-- reply 0.873

-- ask Answer with the recorded Ki of O=C(Oc1cccc(B(O)O)c1)c1c(Cl)cccc1Cl [Compound (6a)] only.
-- reply 1.53

-- ask Please list Ki recorded for the molecule O=C(Oc1ccc(OC(=O)c2cc(B(O)O)cc([N+](=O)[O-])c2)c(Cl)c1)c1cc(B(O)O)cc([N+](=O)[O-])c1 [Compound (2b)]
-- reply 2.92

-- ask Quick one: give measured Ki for O=C(OCc1cccc(B(O)O)c1)c1cc(O)cc(B(O)O)c1 [Compound (3g)]
-- reply 2.69

Continuing:
-- ask Note Ki for the molecule shown: Nc1cc(B(O)O)cc(C(=O)OCc2cccc(B(O)O)c2)c1 [Compound (3f)]
-- reply 0.724

-- ask Give the value of Ki reported for the following: O=C(Oc1cc(OC(=O)c2cc(B(O)O)cc([N+](=O)[O-])c2)cc(OC(=O)c2cc(B(O)O)cc([N+](=O)[O-])c2)c1)c1cc(B(O)O)cc([N+](=O)[O-])c1 [Compound (12a)]
-- reply 1.94

-- ask # return recorded Ki for input O=C(Oc1c(Cl)cccc1[N+](=O)[O-])c1ccc(B(O)O)cc1F [(8a)]
-- reply 0.913

-- ask Please give the documented Ki of O=C(Oc1cccc(B(O)O)c1)c1ccc(C(=O)Oc2cccc(B(O)O)c2)cc1 [Compound (11a)]
-- reply 1.31

---

Examples of compounds with documented ΔG follow.
- ASSAYED_SYSTEM: TEM-1 β-lactamase (Escherichia coli)
- EXPERIMENT: Isothermal titration calorimetry, binding to TEM-1 β-lactamase (Example 17)
- CONDITION_DETAILS: ITC
Lab book: enter the figure in kcal/mol, no units written.

-- ask Answer with reported ΔG of `O=C(Oc1c(Cl)cccc1Cl)c1cc(B(O)O)cc([N+](=O)[O-])c1`
-- reply -5.608

-- ask Annotate the compound `O=C(Oc1c(Cl)cccc1[N+](=O)[O-])c1cc(B(O)O)cc([N+](=O)[O-])c1` with its measured ΔG.
-- reply -6.614

-- ask Report ΔG for `O=C(OCc1cccc2ccccc12)c1cc(B(O)O)cc([N+](=O)[O-])c1`
-- reply -6.164

-- ask Return ΔG (reported value) for this compound: `O=C(Oc1c(Cl)cc(Cl)cc1Cl)c1cc(B(O)O)cc([N+](=O)[O-])c1`
-- reply -6.55

New cases:
-- ask Return reported ΔG. Input compound: `CC(C)(C)c1cc(OC(=O)c2cc(B(O)O)cc([N+](=O)[O-])c2)ccc1OC(=O)c1cc(B(O)O)cc([N+](=O)[O-])c1`
-- reply -6.513

-- ask Retrieve ΔG measured for `O=C(Oc1c(Cl)cc(Cl)cc1[N+](=O)[O-])c1cc(B(O)O)cc([N+](=O)[O-])c1` and print it.
-- reply -6.409

-- ask Indicate the recorded ΔG value for this compound: `O=C(Oc1c(F)cccc1F)c1cc(B(O)O)cc([N+](=O)[O-])c1`
-- reply -5.916

-- ask Specify ΔG for `O=C(Oc1ccc(OC(=O)c2cc(B(O)O)cc([N+](=O)[O-])c2)c(Cl)c1)c1cc(B(O)O)cc([N+](=O)[O-])c1` and stop.
-- reply -7.864

---

- ASSAYED_SYSTEM: AmpC β-lactamase (Escherichia coli, UniProt P00811)
- Construct: made in house; host or cells: E. coli BL21 (DE3)
- CONDITION_DETAILS: binding to AmpC; ITC
- Method: Isothermal titration calorimetry was performed on a high-precision VP-ITC titration calorimeter (Microcal Inc., Northampton, Mass.). β-Lactamase solutions were titrated with inhibitors in 50 mM sodium phosphate, 2% DMSO, pH 7.0, with β-lactamase concentrations ranging from 15 to 25 μM and inhibitor concentrations ranging from 300 to 1000 μM. […] Data were analyzed using Origin 7.0 (OriginLab Corporation, Northampton, Mass.). […]
PROPERTY_NAME: ΔH
Put down the number, then write its unit next to it.

-- ask Determine reported ΔH for CC(C)(C)c1cc(OC(=O)c2cc(B(O)O)cc([N+](=O)[O-])c2)ccc1OC(=O)c1cc(B(O)O)cc([N+](=O)[O-])c1 [Compound (2d)] ; test system: AmpC β-lactamase (Escherichia coli, UniProt P00811).
-- reply 0 cal/mol

-- ask Please tell me the measured ΔH for O=C(OCc1cccc(B(O)O)c1)c1cc(B(O)O)cc([N+](=O)[O-])c1 [Compound (3d)] ; system: AmpC β-lactamase (Escherichia coli, UniProt P00811).
-- reply -15637 cal/mol

-- ask Fill in ΔH for O=C(Oc1ccc(OC(=O)c2ccc(B(O)O)cc2F)c(Cl)c1)c1ccc(B(O)O)cc1F [Compound (7a)] tested with AmpC β-lactamase (Escherichia coli, UniProt P00811).
-- reply -9936 cal/mol

Next up:
-- ask Answer with ΔH of O=C(Oc1cccc(B(O)O)c1)c1c(Cl)cccc1Cl [Compound (6a)] measured for AmpC β-lactamase (Escherichia coli, UniProt P00811).
-- reply -6538 cal/mol

Data origin, for the record: patent US7183267B2
